# credit: patent EP4768484A1

target: Ba/F3 BCR-ABL1 WT (Homo sapiens, UniProt P00519+P11274); construct: BCR (N-terminal fusion partner of the oncoprotein); assay: Cell growth inhibitory activity assay (CellTiter-Glo), Ba/F3 BCR-ABL1 WT cells; details: 72 h, CTG cell viability
Quantity name: IC50

>>> value_observed("COc1ccc(-c2ccnc(-n3ncc4c3-c3cc(-c5cc(C(=O)Nc6ccc(OC(F)(F)Cl)cc6)cc6nc7n(c56)[C@H](C)COC7)cnc3C4)n2)cc1F")
"5 to 50 nM"
>>> value_observed("C[C@@H]1COCc2nc3cc(C(=O)Nc4ccc(OC(F)(F)Cl)cc4)cc(-c4cnc5c(c4)-c4c(cnn4CCOC(C)(C)C)C5)c3n21")
"≤ 5 nM"
>>> value_observed("C[C@@H]1COCc2nc3cc(C(=O)Nc4ccc(OC(F)(F)Cl)cc4)cc(-c4cnc5c(c4)-c4nn(-c6nccc(-c7ccc(F)cc7)n6)cc4C5)c3n21")
"≤ 5 nM"
>>> value_observed("C[C@@H]1CN(C)Cc2nc3cc(C(=O)Nc4ccc(OC(F)(F)Cl)cc4)cc(-c4cnc5c(c4)C(=O)N(C4CC4)C5)c3n21")
"≤ 5 nM"
>>> value_observed("CC(=O)N[C@@H]1CCC2c3cc(C(=O)Nc4ccc(OC(F)(F)Cl)cc4)cc(-c4cnccn4)c3N(C(C)C)C21 (stereo partly drawn)")
"≤ 5 nM"
>>> value_observed("[2H]C([2H])([2H])C([2H])(n1cc2c(n1)-c1cc(-c3cc(C(=O)Nc4ccc(OC(F)(F)Cl)cc4)cc4nc5n(c34)[C@H](C)COC5)cnc1C2)C([2H])([2H])[2H]")
"≤ 5 nM"

---

target: Ba/F3 BCR-ABL1 Y253H/E255K (Homo sapiens, UniProt P00519+P11274, E255K/Y253H); construct: BCR (N-terminal fusion partner of the oncoprotein); test: Cell growth inhibitory activity assay (CellTiter-Glo), Ba/F3 BCR-ABL1 Y253H/E255K cells; details: 72 h, CTG cell viability
pIC50: −log10 of the molar value.
Known pIC50 of a selection of compounds
Quantity name: pIC50

>>> value_observed("C[C@@H]1COCc2nc3cc(C(=O)Nc4ccc(OC(F)(F)Cl)cc4)cc(-c4cnc5c(c4)-c4nn(S(C)(=O)=O)cc4C5)c3n21")
"6.00 to 7.30"
>>> value_observed("C[C@@H]1COCc2nc3cc(C(=O)Nc4ccc(OC(F)(F)Cl)cc4)cc(-c4cnc5c(c4)-c4nc(N)sc4C5)c3n21")
"7.30 to 8.30"
>>> value_observed("C[C@@H]1COCc2nc3cc(C(=O)Nc4ccc(OC(F)(F)Cl)cc4)cc(-c4cnc5c(c4)-c4c(cnn4-c4nccc(C#N)n4)C5)c3n21")
"7.30 to 8.30"
>>> value_observed("C[C@@H]1COCc2nc3cc(C(=O)Nc4ccc(OC(F)(F)Cl)cc4)cc(-c4cnc5c(c4)C(=O)N(C)C5)c3n21")
"7.30 to 8.30"
>>> value_observed("CCn1cc2c(n1)-c1cc(-c3cc(C(=O)Nc4ccc(OC(F)(F)Cl)cc4)cc4nc5n(c34)[C@H](C)COC5)cnc1C2")
"≥ 8.30"
>>> value_observed("C[C@@H]1COCc2nc3cc(C(=O)Nc4ccc(OC(F)(F)Cl)cc4)cc(-c4cnc5c(c4)-c4nn(-c6nccc(C#N)n6)cc4C5)c3n21")
"7.30 to 8.30"
>>> value_observed("C[C@@H]1COCc2nc3cc(C(=O)Nc4ccc(OC(F)(F)Cl)cc4)cc(-c4cnc5c(c4)-c4nn(-c6cncnc6)cc4C5)c3n21")
"6.00 to 7.30"
>>> value_observed("C[C@@H]1COCc2nc3cc(C(=O)Nc4ccc(OC(F)(F)Cl)cc4)cc(-c4cnc5c(c4)-c4nn(C6COC6)cc4C5)c3n21")
"7.30 to 8.30"
>>> value_observed("C[C@@H]1COCc2nc3cc(C(=O)Nc4ccc(OC(F)(F)Cl)cc4)cc(-c4cnc5c(c4)-c4nn(C6CC6)cc4C5)c3n21")
"7.30 to 8.30"
>>> value_observed("C[C@@H]1CCSc2nc3cc(C(=O)Nc4ccc(OC(F)(F)Cl)cc4)cc(-c4cnc5c(c4)C(=O)N(C)C5)c3n21")
"6.00 to 7.30"
>>> value_observed("C[C@@H]1COCc2nc3cc(C(=O)Nc4ccc(OC(F)(F)Cl)cc4)cc(-c4cnc5c(c4)-c4nn(-c6ccccn6)cc4C5)c3n21")
"≥ 8.30"
>>> value_observed("CC(=O)NC1CCC2c3cc(C(=O)Nc4ccc(OC(F)(F)Cl)cc4)cc(-c4cnc5c(c4)C(=O)N(C)C5)c3N(C(C)C)C12 (racemic)")
"6.00 to 7.30"
>>> value_observed("C[C@@H]1COCc2nc3cc(C(=O)Nc4ccc(OC(F)(F)Cl)cc4)cc(-c4cnc5c(c4)-c4n[nH]cc4C5)c3n21")
"≥ 8.30"
>>> value_observed("C[C@@H]1COCc2nc3cc(C(=O)Nc4ccc(OC(F)(F)Cl)cc4)cc(-c4cnc5c(c4)C(=O)N(C4CC4)C5)c3n21")
"7.30 to 8.30"
>>> value_observed("C[C@@H]1COCc2nc3cc(C(=O)Nc4ccc(OC(F)(F)Cl)cc4)cc(-c4cnccn4)c3n21")
"7.30 to 8.30"
>>> value_observed("C[C@@H]1COCc2nc3cc(C(=O)Nc4ccc(OC(F)(F)Cl)cc4)cc(-c4cnc5c(c4)-c4nn(-c6ncccn6)cc4C5)c3n21")
"≥ 8.30"
>>> value_observed("C[C@@H]1COCc2nc3cc(C(=O)Nc4ccc(OC(F)(F)Cl)cc4)cc(-c4cnc5c(c4)-c4nn(-c6ncc(C#N)cn6)cc4C5)c3n21")
"≥ 8.30"
>>> value_observed("C[C@@H]1COCc2nc3cc(C(=O)Nc4ccc(OC(F)(F)Cl)cc4)cc(-c4cnc5c(c4)-c4nn(-c6ccncn6)cc4C5)c3n21")
"≥ 8.30"
>>> value_observed("C[C@@H]1COCc2nc3cc(C(=O)Nc4ccc(OC(F)(F)Cl)cc4)cc(-c4cnc5c(c4)-c4nn(CC(F)(F)F)cc4C5)c3n21")
"≥ 8.30"
>>> value_observed("CC(C)n1cc2c(n1)-c1cc(-c3cc(C(=O)Nc4ccc(OC(F)(F)Cl)cc4)cc4nc5n(c34)[C@H](C)COC5)cnc1C2")
"≥ 8.30"
>>> value_observed("Cc1cc(C)nc(-n2cc3c(n2)-c2cc(-c4cc(C(=O)Nc5ccc(OC(F)(F)Cl)cc5)cc5nc6n(c45)[C@H](C)COC6)cnc2C3)n1")
"≥ 8.30"
>>> value_observed("C[C@@H]1COCc2nc3cc(C(=O)Nc4ccc(OC(F)(F)Cl)cc4)cc(-c4cnc5c(c4)-c4nn(-c6cnccn6)cc4C5)c3n21")
"≥ 8.30"
>>> value_observed("[2H]C([2H])([2H])C([2H])(n1cc2c(n1)-c1cc(-c3cc(C(=O)Nc4ccc(OC(F)(F)Cl)cc4)cc4nc5n(c34)[C@H](C)COC5)cnc1C2)C([2H])([2H])[2H]")
"≥ 8.30"
>>> value_observed("[2H]C([2H])([2H])N1Cc2ncc(-c3cc(C(=O)Nc4ccc(OC(F)(F)Cl)cc4)cc4nc5n(c34)[C@H](C)COC5)cc2C1=O")
"7.30 to 8.30"

---

Known IC50 of a selection of molecules
Biological target: Ba/F3 BCR-ABL1 T315I (Homo sapiens, UniProt P00519+P11274, T315I)
Construct: BCR (N-terminal fusion partner of the oncoprotein)
Assay: Cell growth inhibitory activity assay (CellTiter-Glo), Ba/F3 BCR-ABL1 T315I cells
Conditions: 72 h, CTG cell viability
Procedure: In this assay, the Celltiter-Glo (CTG) kit provided by Promega was used, and it is a homogeneous cell viability assay method. The cell viability of cultured cells was measured by quantifying ATP. […] The steps of cell viability assay are as follows: • a) Cells in logarithmic growth phase were collected. Cell suspension was prepared and the cells were counted. […]
Quantity name: IC50

>>> value_observed("C[C@@H]1COCc2nc3cc(C(=O)Nc4ccc(OC(F)(F)Cl)cc4)cc(-c4cnc5c(c4)-c4nn(-c6ncc7c(ccn7C)n6)cc4C5)c3n21 [T-84]")
"≤ 5 nM"
>>> value_observed("O=C(Nc1ccc(OC(F)(F)Cl)cc1)c1cnc(N2CC[C@@H](F)C2)c(-c2cnc3c(c2)-c2nn(-c4nccc(-c5cncc(F)c5)n4)cc2C3)c1 [T-142]")
"≤ 5 nM"
>>> value_observed("C[C@@H]1COCc2nc3cc(C(=O)Nc4ccc(OC(F)(F)Cl)cc4)cc(-c4cnc5c(c4)-c4nn(-c6ccncc6)cc4C5)c3n21 [T-64]")
"> 1000 nM"
>>> value_observed("O=C(Nc1ccc(OC(F)(F)Cl)cc1)c1cnc(N2CC[C@@H](F)C2)c(-c2cnc3c(c2)-c2nn(-c4nccc(-c5ccc(F)nc5)n4)cc2C3)c1 [T-141]")
"≤ 5 nM"
>>> value_observed("CC(C)C(=O)n1cc2c(n1)-c1cc(-c3cc(C(=O)Nc4ccc(OC(F)(F)Cl)cc4)cc4nc5n(c34)[C@H](C)COC5)cnc1C2 [T-46]")
"≤ 5 nM"
>>> value_observed("C[C@@H]1CCS(=O)(=O)c2nc3cc(C(=O)Nc4ccc(OC(F)(F)Cl)cc4)cc(-c4cnccn4)c3n21 [T-118]")
"5 to 50 nM"
